system: 435261-313-R-J1-PDC complex spheroid viability; experiment: Anticancer human tumor 435261-313-R-J1-PDC patient-derived colon adenocarcinoma cell line growth inhibition [GQUAD]; settings: second compound 0.1 µM; first compound 10 µM; stronger effect = lower value
Entries and their viability, T/C

compound | viability, T/C, %
COc1cc(C2c3cc4c(cc3C(OC3OC5COC(C)OC5C(O)C3O)C3COC(=O)C23)OCO4)cc(OC)c1O (stereo not drawn) + Cc1cnc(CNC(=O)c2c(=O)c3ccc(N4CCCN(C)CC4)nc3n3c2sc2ccccc23)cn1 | 54.5
COc1ccc([C@@H](O)c2cc(-c3ncnc4cc(N5CCOCC5)ccc34)c(F)cc2Cl)nn1 + Cc1[nH]c2ccc(F)cc2c1-c1nc2c3cccnc3c3ncccc3c2[nH]1 | 24.5
Cc1cccc(N(C)C(=O)C2C(O)CCN2c2nc(C)cc(C(F)(F)F)c2C#N)c1 (stereo not drawn) + Cc1cnc(CNC(=O)c2c(=O)c3ccc(N4CCCN(C)CC4)nc3n3c2sc2ccccc23)cn1 | 62.3

###

test system: 435261-313-R-J1-PDC complex spheroid viability; experiment: Anticancer human tumor 435261-313-R-J1-PDC cell line growth inhibition [GQUAD]; details: second compound 0.0316 µM; first compound 0.316 µM; stronger effect = lower value;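 further: spheroids exposed to the agents for seven days before readout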;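 on viability, T/C: percent of vehicle control viability with DMSO wells as 100%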
Kindly apply the following: TRUE if viability, T/C is less than 70%, FALSE in every other case.

compound | class_assignment
COc1cccc2c1C(=O)c1c(O)c3c(c(O)c1C2=O)CC(O)(C(=O)CO)CC3OC1CC(N)C(O)C(C)O1 (stereo not given) + CN(C)c1ccc(Nc2c3ccc(NC(=O)CCN4CCCC4)cc3nc3cc(NC(=O)CCN4CCCC4)ccc23)cc1 | TRUE
C=CC(=O)N1CCN(c2nc(=O)n(-c3c(C)ccnc3C(C)C)c3nc(-c4c(O)cccc4F)c(F)cc23)C(C)C1 (stereo not given) + Cc1cnc(CNC(=O)c2c(=O)c3ccc(N4CCCN(C)CC4)nc3n3c2sc2ccccc23)cn1 | FALSE
COc1ncnc(C2CC2)c1-c1ncc2cnn(Cc3ccc(-c4nc(C(F)(F)F)cn4C(C)C)cc3)c2n1 + Cc1cnc(CNC(=O)c2c(=O)c3ccc(N4CCCN(C)CC4)nc3n3c2sc2ccccc23)cn1 | TRUE
Cn1ncnc1[C@H]1c2n[nH]c(=O)c3cc(F)cc(c23)N[C@@H]1c1ccc(F)cc1 + Cc1[nH]c2ccc(F)cc2c1-c1nc2c3cccnc3c3ncccc3c2[nH]1 | FALSE
C#Cc1c(F)ccc2cc(O)cc(-c3ncc4c(N5CC6CCC(C5)N6)nc(OCC56CCCN5CC(F)C6)nc4c3F)c12 (stereo not given) + CN(C)c1ccc(Nc2c3ccc(NC(=O)CCN4CCCC4)cc3nc3cc(NC(=O)CCN4CCCC4)ccc23)cc1 | FALSE
O=C(NO)c1cnc(N2CCN(S(=O)(=O)c3ccc4ccccc4c3)CC2)nc1 + Cc1[nH]c2ccc(F)cc2c1-c1nc2c3cccnc3c3ncccc3c2[nH]1 | TRUE
CC(=O)O[C@H]1C(=O)[C@@]2(C)[C@H]([C@H](OC(=O)c3ccccc3)[C@]3(O)C[C@H](OC(=O)[C@H](O)[C@@H](NC(=O)c4ccccc4)c4ccccc4)C(C)=C1C3(C)C)[C@]1(OC(C)=O)CO[C@@H]1C[C@@H]2O + Cc1cnc(CNC(=O)c2c(=O)c3ccc(N4CCCN(C)CC4)nc3n3c2sc2ccccc23)cn1 | TRUE
C=CC(=O)N1CCN(c2nc(=O)n(-c3c(C)ccnc3C(C)C)c3nc(-c4c(O)cccc4F)c(F)cc23)C(C)C1 (stereo not given) + Cc1[nH]c2ccc(F)cc2c1-c1nc2c3cccnc3c3ncccc3c2[nH]1 | FALSE
CC(C)n1c(=O)n(C)c2cnc3cc(F)c(-c4ccc(OCCCN5CCCCC5)nc4)cc3c21 + Cc1cnc(CNC(=O)c2c(=O)c3ccc(N4CCCN(C)CC4)nc3n3c2sc2ccccc23)cn1 | FALSE
O=c1[nH]cc(F)c(=O)[nH]1 + Cc1[nH]c2ccc(F)cc2c1-c1nc2c3cccnc3c3ncccc3c2[nH]1 | FALSE

###

test system: 435261-313-R-J1-PDC complex spheroid viability; assay: Anticancer human tumor 435261-313-R-J1-PDC cell line growth inhibition [GQUAD]; conditions: second compound 3.16 µM; first compound 0.1 µM; stronger effect = lower value;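 further: spheroids exposed to the agents for seven days before readout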;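 on viability, T/C: percent of vehicle control viability with DMSO wells as 100%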
API: label(entry) gives Y if the entry's viability, T/C is strictly smaller than 30%; on equality or larger values it gives N.

compound | class_assignment
CC1COCCN1c1cc(C2(O)CC3CCC(C2)O3)c2cnn(-c3ccn[nH]3)c2n1 (stereo not given) + Cc1cnc(CNC(=O)c2c(=O)c3ccc(N4CCCN(C)CC4)nc3n3c2sc2ccccc23)cn1 | Y
CCCS(=O)(=O)Nc1ccc(F)c(C(=O)c2c[nH]c3ncc(-c4ccc(Cl)cc4)cc23)c1F + CN(C)c1ccc(Nc2c3ccc(NC(=O)CCN4CCCC4)cc3nc3cc(NC(=O)CCN4CCCC4)ccc23)cc1 | N
Nc1ccn(C2OC(CO)C(O)C2(F)F)c(=O)n1 (stereo not given) + Cc1[nH]c2ccc(F)cc2c1-c1nc2c3cccnc3c3ncccc3c2[nH]1 | N
CC(=O)O[C@H]1C(=O)[C@@]2(C)[C@H]([C@H](OC(=O)c3ccccc3)[C@]3(O)C[C@H](OC(=O)[C@H](O)[C@@H](NC(=O)c4ccccc4)c4ccccc4)C(C)=C1C3(C)C)[C@]1(OC(C)=O)CO[C@@H]1C[C@@H]2O + Cc1[nH]c2ccc(F)cc2c1-c1nc2c3cccnc3c3ncccc3c2[nH]1 | N
O=c1[nH]cc(F)c(=O)[nH]1 + Cc1[nH]c2ccc(F)cc2c1-c1nc2c3cccnc3c3ncccc3c2[nH]1 | Y

###

Entries and their viability, T/C
Test system: 435261-313-R-J1-PDC complex spheroid viability
Assay: Anticancer human tumor 435261-313-R-J1-PDC cell line growth inhibition [GQUAD];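 further: spheroids exposed to the agents for seven days before readout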;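 on viability, T/C: percent of vehicle control viability with DMSO wells as 100%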
Conditions: second compound 1 µM; first compound 0.1 µM; stronger effect = lower value
Excerpt: DNA G-quadruplex Stabilizer Agents in Combinations in Complex Spheroids A high-throughput screen of multi-cell type tumor spheroids was designed to identify active combinations of DNA G-quadruplex stabilizer agents and targeted small molecules. […] Compounds. […] If the clinical Cmax for an agent had not been determined, the highest concentration tested was 10 microM. […]
test_readout: viability, T/C (%)

compound | experimental_result
Cc1cccc(N(C)C(=O)C2C(O)CCN2c2nc(C)cc(C(F)(F)F)c2C#N)c1 (stereo unspecified) + Cc1cnc(CNC(=O)c2c(=O)c3ccc(N4CCCN(C)CC4)nc3n3c2sc2ccccc23)cn1 | 53
O=c1[nH]cc(F)c(=O)[nH]1 + Cc1[nH]c2ccc(F)cc2c1-c1nc2c3cccnc3c3ncccc3c2[nH]1 | 75
C=CC(=O)N1CCN(c2nc(=O)n(-c3c(C)ccnc3C(C)C)c3nc(-c4c(O)cccc4F)c(F)cc23)C(C)C1 (stereo unspecified) + CN(C)c1ccc(Nc2c3ccc(NC(=O)CCN4CCCC4)cc3nc3cc(NC(=O)CCN4CCCC4)ccc23)cc1 | 101
C=CCn1c(=O)c2cnc(Nc3ccc(N4CCN(C)CC4)cc3)nc2n1-c1cccc(C(C)(C)O)n1 + CN(C)c1ccc(Nc2c3ccc(NC(=O)CCN4CCCC4)cc3nc3cc(NC(=O)CCN4CCCC4)ccc23)cc1 | 98.7
COc1ccc([C@@H](O)c2cc(-c3ncnc4cc(N5CCOCC5)ccc34)c(F)cc2Cl)nn1 + CN(C)c1ccc(Nc2c3ccc(NC(=O)CCN4CCCC4)cc3nc3cc(NC(=O)CCN4CCCC4)ccc23)cc1 | 76.4
COc1ccc([C@@H](O)c2cc(-c3ncnc4cc(N5CCOCC5)ccc34)c(F)cc2Cl)nn1 + Cc1cnc(CNC(=O)c2c(=O)c3ccc(N4CCCN(C)CC4)nc3n3c2sc2ccccc23)cn1 | 42.6

###

The following molecules are shown together with reported pIC50 values.
test system: 435261-313-R-J1-PDC complex spheroid viability; experiment: Anticancer human tumor 435261-313-R-J1-PDC cell line growth inhibition [GQUAD]; conditions: curve of first compound; second compound 0.0316 µM;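 further: spheroids exposed to the agents for seven days before readout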
pIC50: −log10 of the molar value.
test_readout: pIC50

molecule | test_readout | value_qualifier | experimental_result
COc1ccc([C@@H](O)c2cc(-c3ncnc4cc(N5CCOCC5)ccc34)c(F)cc2Cl)nn1 + Cc1cnc(CNC(=O)c2c(=O)c3ccc(N4CCCN(C)CC4)nc3n3c2sc2ccccc23)cn1 | pIC50 | = | 6.20
C#Cc1c(F)ccc2cc(O)cc(-c3ncc4c(N5CC6CCC(C5)N6)nc(OCC56CCCN5CC(F)C6)nc4c3F)c12 (stereo unspecified) + Cc1[nH]c2ccc(F)cc2c1-c1nc2c3cccnc3c3ncccc3c2[nH]1 | pIC50 | < | 5.00
CCCS(=O)(=O)Nc1ccc(F)c(C(=O)c2c[nH]c3ncc(-c4ccc(Cl)cc4)cc23)c1F + CN(C)c1ccc(Nc2c3ccc(NC(=O)CCN4CCCC4)cc3nc3cc(NC(=O)CCN4CCCC4)ccc23)cc1 | pIC50 | = | 5.24
Nc1ccn(C2OC(CO)C(O)C2(F)F)c(=O)n1 (stereo unspecified) + CN(C)c1ccc(Nc2c3ccc(NC(=O)CCN4CCCC4)cc3nc3cc(NC(=O)CCN4CCCC4)ccc23)cc1 | pIC50 | < | 5.00
CCc1c2c(nc3ccc(O)cc13)-c1cc3c(c(=O)n1C2)COC(=O)[C@]3(O)CC + CN(C)c1ccc(Nc2c3ccc(NC(=O)CCN4CCCC4)cc3nc3cc(NC(=O)CCN4CCCC4)ccc23)cc1 | pIC50 | < | 6.50
COc1cccc2c1C(=O)c1c(O)c3c(c(O)c1C2=O)CC(O)(C(=O)CO)CC3OC1CC(N)C(O)C(C)O1 (stereo unspecified) + CN(C)c1ccc(Nc2c3ccc(NC(=O)CCN4CCCC4)cc3nc3cc(NC(=O)CCN4CCCC4)ccc23)cc1 | pIC50 | = | 6.31
CC1COCCN1c1cc(C2(S(C)(=N)=O)CC2)nc(-c2ccnc3[nH]ccc23)n1 (stereo unspecified) + CN(C)c1ccc(Nc2c3ccc(NC(=O)CCN4CCCC4)cc3nc3cc(NC(=O)CCN4CCCC4)ccc23)cc1 | pIC50 | < | 5.00
O=c1[nH]cc(F)c(=O)[nH]1 + Cc1[nH]c2ccc(F)cc2c1-c1nc2c3cccnc3c3ncccc3c2[nH]1 | pIC50 | < | 5.00
CC1COCCN1c1cc(-c2ccnn2C)c2ccnc(-c3ccn[nH]3)c2n1 (stereo unspecified) + Cc1cnc(CNC(=O)c2c(=O)c3ccc(N4CCCN(C)CC4)nc3n3c2sc2ccccc23)cn1 | pIC50 | = | 6.53
Cc1cccc(N(C)C(=O)C2C(O)CCN2c2nc(C)cc(C(F)(F)F)c2C#N)c1 (stereo unspecified) + Cc1cnc(CNC(=O)c2c(=O)c3ccc(N4CCCN(C)CC4)nc3n3c2sc2ccccc23)cn1 | pIC50 | < | 5.00
CC1COCCN1c1cc(C2(O)CC3CCC(C2)O3)c2cnn(-c3ccn[nH]3)c2n1 (stereo unspecified) + Cc1cnc(CNC(=O)c2c(=O)c3ccc(N4CCCN(C)CC4)nc3n3c2sc2ccccc23)cn1 | pIC50 | = | 7.02
